Target: fibrinogen binding to platelets (gpIIb/IIIa) (Homo sapiens, UniProt P05106+P08514)
Construct: endogenous in cells
Sequence (P08514 32-887 limits assumed): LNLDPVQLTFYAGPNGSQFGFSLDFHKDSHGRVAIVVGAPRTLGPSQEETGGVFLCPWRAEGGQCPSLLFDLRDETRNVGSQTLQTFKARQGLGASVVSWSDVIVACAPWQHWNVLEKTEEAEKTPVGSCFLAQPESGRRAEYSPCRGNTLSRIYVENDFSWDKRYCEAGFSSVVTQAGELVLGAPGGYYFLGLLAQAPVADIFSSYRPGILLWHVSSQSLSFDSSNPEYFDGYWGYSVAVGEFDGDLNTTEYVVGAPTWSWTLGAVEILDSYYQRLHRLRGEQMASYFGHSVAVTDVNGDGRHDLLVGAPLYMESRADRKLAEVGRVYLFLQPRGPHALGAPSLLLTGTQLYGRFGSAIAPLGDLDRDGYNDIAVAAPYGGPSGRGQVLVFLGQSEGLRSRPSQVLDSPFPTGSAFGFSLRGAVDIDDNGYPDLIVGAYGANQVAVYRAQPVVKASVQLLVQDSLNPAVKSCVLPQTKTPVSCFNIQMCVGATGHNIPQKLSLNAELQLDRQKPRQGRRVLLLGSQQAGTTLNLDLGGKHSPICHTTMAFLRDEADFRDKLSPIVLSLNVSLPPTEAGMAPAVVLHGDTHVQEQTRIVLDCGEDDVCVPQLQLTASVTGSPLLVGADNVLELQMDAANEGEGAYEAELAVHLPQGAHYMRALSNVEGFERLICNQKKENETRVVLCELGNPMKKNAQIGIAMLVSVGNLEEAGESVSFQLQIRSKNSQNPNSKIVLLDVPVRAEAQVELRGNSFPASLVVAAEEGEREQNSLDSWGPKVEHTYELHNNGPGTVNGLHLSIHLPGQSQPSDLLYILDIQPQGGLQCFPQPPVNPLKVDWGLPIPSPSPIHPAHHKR
Sequence (P08514 891-1039 partner limits assumed): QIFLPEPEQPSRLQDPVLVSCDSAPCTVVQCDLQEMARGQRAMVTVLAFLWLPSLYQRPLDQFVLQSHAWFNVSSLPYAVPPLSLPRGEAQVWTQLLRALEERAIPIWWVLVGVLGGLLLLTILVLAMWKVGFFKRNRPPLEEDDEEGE
Sequence (P05106 27-788): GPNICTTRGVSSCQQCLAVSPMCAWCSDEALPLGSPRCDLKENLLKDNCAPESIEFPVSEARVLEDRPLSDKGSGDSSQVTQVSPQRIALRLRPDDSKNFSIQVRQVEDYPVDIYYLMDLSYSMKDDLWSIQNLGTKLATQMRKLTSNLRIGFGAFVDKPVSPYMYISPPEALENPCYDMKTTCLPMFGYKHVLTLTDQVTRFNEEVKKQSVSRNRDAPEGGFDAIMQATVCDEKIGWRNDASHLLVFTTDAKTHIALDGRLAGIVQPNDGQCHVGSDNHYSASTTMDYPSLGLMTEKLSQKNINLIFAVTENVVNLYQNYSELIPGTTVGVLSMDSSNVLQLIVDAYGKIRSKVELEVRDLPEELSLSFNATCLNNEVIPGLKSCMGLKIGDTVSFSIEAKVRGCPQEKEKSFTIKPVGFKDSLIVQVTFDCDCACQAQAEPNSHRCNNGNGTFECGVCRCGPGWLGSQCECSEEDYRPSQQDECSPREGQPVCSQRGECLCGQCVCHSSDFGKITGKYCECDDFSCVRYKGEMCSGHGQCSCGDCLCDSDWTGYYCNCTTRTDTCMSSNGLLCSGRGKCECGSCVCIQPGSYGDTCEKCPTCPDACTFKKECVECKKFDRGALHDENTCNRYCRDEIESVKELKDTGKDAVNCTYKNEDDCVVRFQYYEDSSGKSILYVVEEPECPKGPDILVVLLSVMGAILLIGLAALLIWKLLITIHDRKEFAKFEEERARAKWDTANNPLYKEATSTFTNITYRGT
Assay: Fibrinogen Binding Assay (125I-fibrinogen binding to ADP-activated platelets)
Details: ADP 10 μM, 125I-fibrinogen 0.3 μM, 40 min at 37° C., read-out: Human Fg binding IC50
Structures can show the parent of a compound that is named as a salt.
Lab note: compare IC50 with 200 nM, writing TRUE if less and FALSE if equal or more.

Request: hey, is IC50 for N=C(N)c1ccc(CCCCC(=O)N[C@@H](CC(=O)O)C(=O)N[C@@H](Cc2ccccc2)C(=O)O)cc1 [acetate salt] lower than 200 nM or not?
Response: TRUE

Request: Likewise for N=C(N)c1cccc(/C=C\CCCC(=O)N[C@@H](CC(=O)O)C(=O)N[C@@H](Cc2ccccc2)C(=O)O)c1 ?
Response: FALSE

Request: Likewise for N=C(N)c1ccc(C#CCCC(=O)N[C@@H](CC(=O)O)C(=O)N[C@@H](Cc2ccccc2)C(=O)O)cc1 ?
Response: TRUE

Request: Likewise for N=C(N)c1ccc(/C=C/CCC(=O)N[C@@H](CC(=O)O)C(=O)N[C@@H](Cc2ccccc2)C(=O)O)cc1 ?
Response: TRUE
